experimental-target: T1, AviTag-His6-MBP-TEVsite-14-3-3γ (human, UniProt P61981 1-247)
T1 sequence (looked up): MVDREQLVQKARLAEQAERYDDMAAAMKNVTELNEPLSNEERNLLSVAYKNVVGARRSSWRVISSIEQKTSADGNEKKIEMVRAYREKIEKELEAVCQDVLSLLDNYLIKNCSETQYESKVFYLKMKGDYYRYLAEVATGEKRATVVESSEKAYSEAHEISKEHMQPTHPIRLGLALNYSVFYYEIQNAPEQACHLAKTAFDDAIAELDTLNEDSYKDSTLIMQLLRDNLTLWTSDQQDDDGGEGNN
procedure-summary: Holdup Multiplex
Square brackets hold non-standard residues; d marks the D form. Ends that are not written are not given here. pS = N[C@@H](COP(=O)(O)O)C(=O)O
attribute-measured: pKd
# pKd is unitless: minus log10 of the molar concentration; print number only

Req: Which pKd value belongs to QRISQ[pS]APVK (peptide, UniProt P46937 271-280, looked up, also: phosphoserine at 276 (S4 or S6)) [YAP1 pSer276 phosphopeptide] ?
Resp: 6.15
